Data credit: ChEMBL document CHEMBL6121047

- Test system: HEK-293T
- experimentDescription: Cytotoxicity against human HEK293T cells assessed as reduction in cell viability incubated for 24 hrs by CCK-8 assay
- Format: toxicity, cell-based
- Parameters: concentration or dose not given beside the values
As shown below, each of these compounds has a reported Activity value.

substanceSmiles: O=C(NCc1cccc(F)c1F)c1cccc2[nH]c(-c3ccc(OC(F)F)c(OCC4CC4)c3)nc12
Activity: > 70%
//
substanceSmiles: O=C(NCc1ccc(F)cc1F)c1cccc2[nH]c(-c3ccc(OC(F)F)c(OCC4CC4)c3)nc12
Activity: > 70%
//
substanceSmiles: O=C(NCc1ccccc1)c1cccc2[nH]c(-c3ccc(OC(F)F)c(OCC4CC4)c3)nc12
Activity: > 70%
//
substanceSmiles: O=C(NCc1c(F)cccc1F)c1cccc2[nH]c(-c3ccc(OC(F)F)c(OCC4CC4)c3)nc12
Activity: > 70%
//
substanceSmiles: O=C(NCc1ccc(F)c(F)c1)c1cccc2[nH]c(-c3ccc(OC(F)F)c(OCC4CC4)c3)nc12
Activity: > 70%
